Reported pIC50 values for the following compounds.
Molecular target: Kras and SOS1 (biotin-tagged human Kras loaded with GDP, His-tagged human SOS1) (Homo sapiens, UniProt P01116, G12D)
Construct: made in house; host or cells: E. coli (stated for Kras only)
Sequence (P01116 1-188 isoform P01116-2 G12D): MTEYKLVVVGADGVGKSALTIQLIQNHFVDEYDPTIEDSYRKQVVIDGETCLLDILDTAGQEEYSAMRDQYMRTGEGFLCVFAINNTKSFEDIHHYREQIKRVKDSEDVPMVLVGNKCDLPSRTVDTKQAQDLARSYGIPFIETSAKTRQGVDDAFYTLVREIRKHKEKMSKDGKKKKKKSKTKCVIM
Assay: Protein-protein interaction inhibition between Kras and SOS1 (KrasGl2D-SOS PPI) using AlphaScreen
Type: binding
Details: AlphaScreen; biotin-tagged human Kras loaded with GDP, His-tagged human SOS1; read-out: KRAS G12D-SOS PPI IC50
pIC50: −log10 of the molar value. Starred links: 1 amine or outer side, 2 acyl side, 3 side chain; linkers in the order of their positions; H or OH if unused. Positions of bridges follow the written chain, without caps; N, C: chain ends. Non-standard residues stand in square brackets, D forms with d. Residues, ends and D or L forms follow the SMILES beside them. *: point of attachment. hPhe(3-Cl-4-CF3) = N[C@@H](CCc1ccc(C(F)(F)F)c(Cl)c1)C(=O)O; NMePhe(4-CF3) = CN[C@@H](Cc1ccc(C(F)(F)F)cc1)C(=O)O; NMePhe(4-Cl) = CN[C@@H](Cc1ccc(Cl)cc1)C(=O)O; NMePhe(4-F) = CN[C@@H](Cc1ccc(F)cc1)C(=O)O; NMedβ3hAla = C[C@H](CC(=O)[*:2])N(C)[*:1]; NMeAla(cPent) = CN[C@@H](CC1CCCC1)C(=O)O; NMeGly(cPent) = CN[C@H](C(=O)O)C1CCCC1; Phe(3-I) = N[C@@H](Cc1cccc(I)c1)C(=O)O; NMe3Pal = CN[C@@H](Cc1cccnc1)C(=O)O; NMeCha = CN[C@@H](CC1CCCCC1)C(=O)O; NMeCba = CN[C@@H](CC1CCC1)C(=O)O; NMeChg = CN[C@H](C(=O)O)C1CCCCC1; NMeD = CN[C@@H](CC(=O)O)C(=O)O; NMeL = CN[C@@H](CC(C)C)C(=O)O; NMeNva = CCC[C@H](NC)C(=O)O; NMeV = CN[C@H](C(=O)O)C(C)C; d(β3hA) = C[C@@H](N)CC(=O)O; NMeAbu = CC[C@H](NC)C(=O)O; NMeA = CN[C@@H](C)C(=O)O; NMeAib = CNC(C)(C)C(=O)O; Piperidide = C1CCN(*)CC1; Pra = C#CC[C@H](N)C(=O)O; dNMeA = CN[C@H](C)C(=O)O; Ac5c = NC1(C(=O)O)CCCC1; Aze = O=C(O)[C@@H]1CCN1; Sar = CNCC(=O)O
PROPERTY MEASURED: pIC50

- COMPOUND: "CC[C@H](C)[C@@H]1NC(=O)[C@H](CC(C)C)N(C)C(=O)C[C@@H](C)N(C)C(=O)[C@H](CC(C)C)NC(=O)C(C)(C)N(C)C(=O)[C@H](CC(C)C)NC(=O)[C@H](CCc2ccc(C(F)(F)F)c(Cl)c2)NC(=O)[C@@H](C)N(C)C(=O)[C@H](Cc2ccc(C(F)(F)F)cc2)N(C)C(=O)[C@@H]2CCN2C(=O)CN(C)C1=O [Compound 1395] (cyclo([Aze][NMePhe(4-CF3)][dNMeA][hPhe(3-Cl-4-CF3)]L[NMeAib]L[NMedβ3hAla][NMeL]I[Sar]))"
  OBSERVED: 6.57
- COMPOUND: "CC[C@H](C)[C@@H]1NC(=O)[C@H](CC2CCCCC2)N(C)C(=O)C[C@@H](C(=O)N2CCCCC2)N(C)C(=O)[C@H](C(C)C)N(C)C(=O)C2(CCCC2)NC(=O)[C@@H]2CCCN2C(=O)[C@H](CCc2ccc(C(F)(F)F)c(Cl)c2)NC(=O)CN(C)C(=O)[C@H](CC2CCCCC2)N(C)C(=O)CN(C)C(=O)CN(C)C1=O [Compound 321] ([NMeCha]I[Sar][Sar][NMeCha][Sar][hPhe(3-Cl-4-CF3)]P[Ac5c][NMeV][NMeD]-Piperidide; lactam N-11)"
  OBSERVED: 7.96
- COMPOUND: "CC[C@H](C)[C@@H]1NC(=O)[C@H](CC2CCCC2)N(C)C(=O)C[C@@H](C(=O)N2CCCCC2)N(C)C(=O)[C@H](C(C)C)N(C)C(=O)C2(CCCC2)NC(=O)[C@@H]2CCCN2C(=O)[C@H](CCc2ccc(C(F)(F)F)c(Cl)c2)NC(=O)CN(C)C(=O)[C@H](CC2CCCCC2)N(C)C(=O)CN(C)C(=O)CN(C)C1=O [Compound 60] ([NMeAla(cPent)]I[Sar][Sar][NMeCha][Sar][hPhe(3-Cl-4-CF3)]P[Ac5c][NMeV][NMeD]-Piperidide; lactam N-11)"
  OBSERVED: 8.10
- COMPOUND: "CCC[C@H]1C(=O)NC2(CCCC2)C(=O)N(C)[C@@H](C2CCCCC2)C(=O)N(C)[C@H](C(=O)N2CCCCC2)CC(=O)N(C)[C@@H](CC(C)C)C(=O)N[C@@H]([C@@H](C)CC)C(=O)N(C)[C@@H](C)C(=O)N2CC[C@H]2C(=O)N(C)[C@@H](CC2CCCCC2)C(=O)N(C)CC(=O)N[C@@H](CCc2ccc(C(F)(F)F)c(Cl)c2)C(=O)N1C [Compound 1113] ([NMeL]I[NMeA][Aze][NMeCha][Sar][hPhe(3-Cl-4-CF3)][NMeNva][Ac5c][NMeChg][NMeD]-Piperidide; lactam N-11)"
  OBSERVED: 6.39
- COMPOUND: "C#CC[C@@H]1NC(=O)[C@H](Cc2cccc(I)c2)NC(=O)CN(C)C(=O)[C@H](Cc2ccc(Cl)cc2)N(C)C(=O)CN(C)C(=O)CN(C)C(=O)[C@H]([C@@H](C)CC)NC(=O)[C@H](CC(C)C)N(C)C(=O)C[C@@H](C(=O)N2CCCCC2)N(C)C(=O)[C@H](CC(C)C)NC(=O)C(C)(C)N(C)C1=O [Compound 1426] ([NMeL]I[Sar][Sar][NMePhe(4-Cl)][Sar][Phe(3-I)][Pra][NMeAib]L[NMeD]-Piperidide; lactam N-11)"
  OBSERVED: 7.32
- COMPOUND: "CC[C@H](C)[C@@H]1NC(=O)[C@H](C)N(C)C(=O)C[C@@H](C)NC(=O)[C@H](C(C)C)N(C)C(=O)C2(CCCC2)NC(=O)[C@@H]2CCCN2C(=O)[C@H](CCc2ccc(C(F)(F)F)c(Cl)c2)NC(=O)[C@@H](C)N(C)C(=O)[C@H](Cc2ccc(F)cc2)N(C)C(=O)CN(C)C(=O)CN(C)C1=O [Compound 1655] (cyclo([Ac5c][NMeV][d(β3hA)][NMeA]I[Sar][Sar][NMePhe(4-F)][dNMeA][hPhe(3-Cl-4-CF3)]P))"
  OBSERVED: 7.07
- COMPOUND: "CC[C@H](C)[C@@H]1NC(=O)[C@H](C)N(C)C(=O)C[C@@H](C)NC(=O)[C@H](C2CCCC2)N(C)C(=O)C2(CCCC2)NC(=O)[C@@H]2CCCN2C(=O)[C@H](CCc2ccc(C(F)(F)F)c(Cl)c2)NC(=O)[C@@H](C)N(C)C(=O)[C@H](CC)N(C)C(=O)CN(C)C(=O)CN(C)C1=O [Compound 413] (cyclo([Ac5c][NMeGly(cPent)][d(β3hA)][NMeA]I[Sar][Sar][NMeAbu][dNMeA][hPhe(3-Cl-4-CF3)]P))"
  OBSERVED: 7.30
- COMPOUND: "CC[C@H](C)[C@@H]1NC(=O)[C@H](CC(C)C)N(C)C(=O)C[C@@H](C(=O)N2CCCCC2)N(C)C(=O)[C@H](C(C)C)N(C)C(=O)C2(CCCC2)NC(=O)[C@@H]2CCCN2C(=O)[C@H](CCc2ccc(C(F)(F)F)c(Cl)c2)NC(=O)CN(C)C(=O)[C@H](CC2CCC2)N(C)C(=O)[C@@H]2CCN2C(=O)[C@H](C)N(C)C1=O [Compound 1716] ([NMeL]I[NMeA][Aze][NMeCba][Sar][hPhe(3-Cl-4-CF3)]P[Ac5c][NMeV][NMeD]-Piperidide; lactam N-11)"
  OBSERVED: 8.10
- COMPOUND: "CC[C@H](C)[C@@H]1NC(=O)[C@H](CC(C)C)N(C)C(=O)C[C@@H](C(=O)N2CCCCC2)N(C)C(=O)[C@H](C2CCCCC2)N(C)C(=O)C2(CCCC2)NC(=O)[C@H](Cc2cccnc2)N(C)C(=O)[C@H](CCc2ccc(C(F)(F)F)c(Cl)c2)NC(=O)CN(C)C(=O)[C@H](CC2CCCCC2)N(C)C(=O)CN(C)C(=O)CN(C)C1=O [Compound 63] ([NMeL]I[Sar][Sar][NMeCha][Sar][hPhe(3-Cl-4-CF3)][NMe3Pal][Ac5c][NMeChg][NMeD]-Piperidide; lactam N-11)"
  OBSERVED: 8.43
